The compounds listed here are annotated with their fold change (FC).
molecular target: ATP-dependent translocase ABCB1 (Homo sapiens, UniProt P08183); test: Inhibition of P-gp-mediated paclitaxel-resistance in P-glycoprotein-expressing human LCC-6 cells assessed as fold decrease in paclitaxel IC50 for cytotoxic activity at 1 uM after 5 days by MTS assay relative to control; type: cell-based; details: lcc-6, 120 h
Sequence (P08183 whole entry): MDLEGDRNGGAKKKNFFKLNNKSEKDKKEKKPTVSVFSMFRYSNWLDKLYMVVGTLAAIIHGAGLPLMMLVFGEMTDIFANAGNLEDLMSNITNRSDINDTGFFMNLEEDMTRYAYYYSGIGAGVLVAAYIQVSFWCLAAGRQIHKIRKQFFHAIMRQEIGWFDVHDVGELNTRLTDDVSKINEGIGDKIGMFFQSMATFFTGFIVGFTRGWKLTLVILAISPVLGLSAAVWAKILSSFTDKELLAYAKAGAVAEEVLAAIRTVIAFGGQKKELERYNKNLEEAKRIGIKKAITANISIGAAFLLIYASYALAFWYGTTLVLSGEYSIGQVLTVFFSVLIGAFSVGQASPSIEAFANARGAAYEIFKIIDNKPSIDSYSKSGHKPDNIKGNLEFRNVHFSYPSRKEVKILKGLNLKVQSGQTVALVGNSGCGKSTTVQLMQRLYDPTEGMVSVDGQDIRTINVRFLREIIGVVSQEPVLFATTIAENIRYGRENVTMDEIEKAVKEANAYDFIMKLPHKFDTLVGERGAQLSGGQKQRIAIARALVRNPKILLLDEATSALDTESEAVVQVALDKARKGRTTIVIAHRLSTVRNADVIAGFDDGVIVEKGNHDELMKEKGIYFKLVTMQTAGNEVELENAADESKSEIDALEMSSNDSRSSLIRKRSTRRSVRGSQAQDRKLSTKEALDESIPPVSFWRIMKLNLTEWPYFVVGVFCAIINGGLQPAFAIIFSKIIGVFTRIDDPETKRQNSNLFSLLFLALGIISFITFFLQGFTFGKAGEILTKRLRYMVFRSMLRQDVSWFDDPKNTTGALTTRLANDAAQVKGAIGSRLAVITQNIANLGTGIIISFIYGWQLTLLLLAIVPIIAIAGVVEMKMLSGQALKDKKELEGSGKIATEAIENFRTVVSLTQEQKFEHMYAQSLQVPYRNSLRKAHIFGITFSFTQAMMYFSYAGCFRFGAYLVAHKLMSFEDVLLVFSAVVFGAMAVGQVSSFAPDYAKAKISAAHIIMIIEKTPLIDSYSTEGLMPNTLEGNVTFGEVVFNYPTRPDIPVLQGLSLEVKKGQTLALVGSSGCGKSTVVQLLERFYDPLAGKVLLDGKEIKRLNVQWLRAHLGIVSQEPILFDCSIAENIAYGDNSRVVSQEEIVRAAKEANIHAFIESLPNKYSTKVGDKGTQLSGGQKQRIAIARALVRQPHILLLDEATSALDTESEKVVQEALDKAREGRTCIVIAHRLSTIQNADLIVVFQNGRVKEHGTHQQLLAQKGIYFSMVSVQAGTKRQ
Provide a numeric answer; units are not to be included.

As a guide, the following entries are already answered.
COc1ccc(C2=C(c3ccc(OC)c(OC)c3)C(=O)N(Cc3cc(OC)c(OC)c(OC)c3)C2=O)cc1OC; 18.2
COc1ccc(C2=C(c3ccc(OC)c(OC)c3)C(=S)N(Cc3ccccc3)C2=O)cc1OC; 3.4
COc1ccc(CN2C(=O)C(c3ccc(OC)c(OC)c3)=C(c3ccc(OC)c(OC)c3)C2=O)cc1OC; 12.4
COc1ccc(C2=C(c3ccc(OC)c(OC)c3)C(=O)N(Cc3ccccc3)C2=O)cc1OC; 7.9
COc1ccc(C2=C(c3ccc(OC)c(OC)c3)C(=O)N(CCc3cc(OC)c(OC)c(OC)c3)C2=O)cc1OC; 4.5
COc1ccc(CN2C(=O)C(c3ccc(OC)c(OC)c3)=C(c3ccc(OC)c(OC)c3)C2=O)cc1; 9.3
COc1ccc(CCN2C(=O)C(c3ccc(OC)c(OC)c3)=C(c3ccc(OC)c(OC)c3)C2=O)cc1; 10.7
COc1ccc(C(=O)CN2C(=O)C(c3ccc(OC)c(OC)c3)=C(c3ccc(OC)c(OC)c3)C2=O)cc1OC; 8.2

fold change (FC) for ATP-dependent translocase ABCB1 (Homo sapiens, UniProt P08183) with input `COc1ccc(C2=C(c3ccc(OC)c(OC)c3)C(=O)N(CCc3ccccc3)C2=O)cc1OC` equals 3.6

fold change (FC) for ATP-dependent translocase ABCB1 (Homo sapiens, UniProt P08183) with input `COc1ccc(C2=C(c3ccc(OC)c(OC)c3)C(=O)N(CCO)C2=O)cc1OC` equals 1.8

fold change (FC) for ATP-dependent translocase ABCB1 (Homo sapiens, UniProt P08183) with input `COc1ccc(C2=C(c3ccc(OC)c(OC)c3)C(=O)N(CCCc3cc(OC)c(OC)c(OC)c3)C2=O)cc1OC` equals 4.7

fold change (FC) for ATP-dependent translocase ABCB1 (Homo sapiens, UniProt P08183) with input `COc1ccc(C2=C(c3ccc(OC)c(OC)c3)C(=S)N(CCc3cc(OC)c(OC)c(OC)c3)C2=O)cc1OC` equals 2.8

fold change (FC) for ATP-dependent translocase ABCB1 (Homo sapiens, UniProt P08183) with input `COc1ccc(C2=C(c3ccc(OC)c(OC)c3)C(=O)N(C/C=C/c3cc(OC)c(OC)c(OC)c3)C2=O)cc1OC` equals 6.2

fold change (FC) for ATP-dependent translocase ABCB1 (Homo sapiens, UniProt P08183) with input `COc1ccc(-c2cn(Cc3cc(OC)c(OC)c(OC)c3)c(OCc3cc(OC)c(OC)c(OC)c3)c2-c2ccc(OC)c(OC)c2)cc1OC` equals 1.6

fold change (FC) for ATP-dependent translocase ABCB1 (Homo sapiens, UniProt P08183) with input `COc1ccc(C2=C(c3ccc(OC)c(OC)c3)C(=O)N(CCN3C(=O)C(c4ccc(OC)c(OC)c4)=C(c4ccc(OC)c(OC)c4)C3=O)C2=O)cc1OC` equals 1.4

====

The compounds listed here are annotated with their fractional inhibitory concentration index (FICI).
target: ATP-dependent translocase ABCB1 (Homo sapiens, UniProt P08183); assay: Inhibition of P-gp-mediated paclitaxel-resistance in P-glycoprotein-expressing human LCC-6 cells assessed as fractional inhibitory concentration index at 0.5 uM after 5 days by MTS assay in presence of 1-(3,4,5-Trimethoxybenzyl)-3,4-bis(3,4-dimethoxyphenyl)-1H-pyrrole-2,5-dione; format: cell-based; conditions: lcc-6, 120 h
Provide a numeric answer; units are not to be included.

fractional inhibitory concentration index (FICI) for ATP-dependent translocase ABCB1 (Homo sapiens, UniProt P08183) with input `COc1ccc(C(=O)CN2C(=O)C(c3ccc(OC)c(OC)c3)=C(c3ccc(OC)c(OC)c3)C2=O)cc1OC` equals 2.05

fractional inhibitory concentration index (FICI) for ATP-dependent translocase ABCB1 (Homo sapiens, UniProt P08183) with input `COc1ccc(CCN2C(=O)C(c3ccc(OC)c(OC)c3)=C(c3ccc(OC)c(OC)c3)C2=O)cc1` equals 1.61

fractional inhibitory concentration index (FICI) for ATP-dependent translocase ABCB1 (Homo sapiens, UniProt P08183) with input `COc1ccc(C(=O)CN2C(=O)C(c3ccc(OC)c(OC)c3)=C(c3ccc(OC)c(OC)c3)C2=O)cc1` equals 0.42

fractional inhibitory concentration index (FICI) for ATP-dependent translocase ABCB1 (Homo sapiens, UniProt P08183) with input `COc1ccc(CN2C(=O)C(c3ccc(OC)c(OC)c3)=C(c3ccc(OC)c(OC)c3)C2=O)cc1OC` equals 2.21

====

biological target: ATP-dependent translocase ABCB1 (Homo sapiens); assay: Inhibition of P-gp-mediated paclitaxel-resistance in P-glycoprotein-expressing human LCC-6 cells assessed as fold decrease in paclitaxel IC50 for cytotoxic activity at 1 uM after 5 days by MTS assay relative to control; assay type: cell-based; details: lcc-6, 120 h
recorded.endpoint: fold change (FC)
Provide a numeric answer; units are not to be included.

Consider `COc1ccc(C(=O)CN2C(=O)C(c3ccc(OC)c(OC)c3)=C(c3ccc(OC)c(OC)c3)C2=O)cc1` . Its measured fold change (FC) is 9.9

Consider `COc1ccc(CCN2C(=O)C(c3ccc(OC)c(OC)c3)=C(c3ccc(OC)c(OC)c3)C2=O)cc1OC` . Its measured fold change (FC) is 6.9

Consider `COc1ccc(C2=C(c3ccc(OC)c(OC)c3)C(=O)N(CC(=O)c3ccccc3)C2=O)cc1OC` . Its measured fold change (FC) is 3.9
